As shown below, each of these molecules has a reported Anti-bacterial activity (MIC) value.
System: methicillin-sensitive Staphylococcus aureus (MSSA)
Test: MIC, two-fold agar dilution (CLSI), clinical isolates
Type: cell-based
Conditions: strain MSSA 15-3

Answered examples (2):
- molecule: "CCCC[C@H](CN(O)C=O)C(=O)N1CCC[C@H]1C(=O)Nc1ccc(F)c[n+]1[O-] [LBM415, reference compound]"
  Anti-bacterial activity (MIC): "0.5 mg/L"
- molecule: "C[C@H]1COc2c(N3CCN(C)CC3)c(F)cc3c(=O)c(C(=O)O)cn1c23 [levofloxacin, reference compound]"
  Anti-bacterial activity (MIC): "16 mg/L"

Documented Anti-bacterial activity (MIC) of CCCC[C@H](CC(=O)NO)C(=O)N1CC2(CCCC2)C[C@H]1C(=O)Nc1ncc(C)s1 [Example 79] : 0.5 mg/L

Entry CCCC[C@H](CC(=O)NO)C(=O)N1CC2(CCCC2)C[C@H]1C(=O)Nc1cc(C)on1 [Example 80] ; Anti-bacterial activity (MIC) = 2 mg/L

---

Tested on: Streptococcus pneoumoniae (SPN)
Experiment: MIC, two-fold agar dilution (CLSI), clinical isolates
Type: cell-based
Conditions: strain SPN 16-2
Output Fulfilled for records whose MIC (anti-bacterial activity) is lower than 2 µg/mL, Not fulfilled for records at or above 2 µg/mL.

# count of solved cases: 5
- entry.smiles: "O=CN(O)C[C@@H](CC1CCCC1)C(=O)N1CC2(CC2)C[C@H]1C(=O)Nc1ccno1"
  label: "Fulfilled"
- entry.smiles: "O=CN(O)C[C@@H](CC1CCCC1)C(=O)N1CC2(CC2)C[C@H]1C(=O)Nc1ccncn1"
  label: "Fulfilled"
- entry.smiles: "O=CN(O)C[C@@H](CC1CCCC1)C(=O)N1CC2(CC2)C[C@H]1C(=O)Nc1cc[nH]n1"
  label: "Fulfilled"
- entry.smiles: "O=CN(O)C[C@@H](CC1CCCC1)C(=O)N1CC2(CC2)C[C@H]1C(=O)N1CCS(=O)(=O)CC1"
  label: "Not fulfilled"
- entry.smiles: "CCCC[C@H](CN(O)C=O)C(=O)N1CC2(CC2)C[C@H]1C(=O)Nc1ccc(N2CCOCC2)cc1"
  label: "Not fulfilled"

Please indicate whether the reported MIC (anti-bacterial activity) of CCCC[C@H](CN(O)C=O)C(=O)N1CC2(CC2)C[C@H]1C(=O)NC1CC1 is strictly below 2 µg/mL. Not fulfilled

MIC (anti-bacterial activity) under 2 µg/mL? Item: Cc1csc(NC(=O)[C@@H]2CC3(CC3)CN2C(=O)[C@H](CC2CCCC2)CN(O)C=O)n1 Fulfilled

---

# Anti-bacterial activity (MIC), strain ECO+ 15-1 per record follows
Tested on: Escherichia coli (including ESBLs, non-ESBLs)
Assay: MIC, two-fold agar dilution (CLSI), clinical isolates
Type: cell-based
Details: clinical isolate ECO+ 15-1
Give the value, in units of µg/mL, as a plain number.

In the examples that follow, each entry is paired with its recorded Anti-bacterial activity (MIC), strain ECO+ 15-1.
- entry.smiles: "CCCC[C@H](CC(=O)NO)C(=O)N1CC2(CC2)C[C@H]1C(=O)Nc1cccnn1"
  target.entity: "Escherichia coli (including ESBLs, non-ESBLs)"
  measured: 8
- entry.smiles: "Cc1cc(NC(=O)[C@@H]2CC3(CC3)CN2C(=O)[C@@H](CC(=O)NO)CC2CCCC2)no1"
  target.entity: "Escherichia coli (including ESBLs, non-ESBLs)"
  measured: 16
- entry.smiles: "O=C(C[C@@H](CC1CCCC1)C(=O)N1CC2(CC2)C[C@H]1C(=O)Nc1nc(C(F)(F)F)cs1)NO"
  target.entity: "Escherichia coli (including ESBLs, non-ESBLs)"
  measured: 16

Record for CCCC[C@H](CC(=O)NO)C(=O)N1CC2(CC2)C[C@H]1C(=O)Nc1nc(C)cs1 under target or system Escherichia coli (including ESBLs, non-ESBLs): Anti-bacterial activity (MIC), strain ECO+ 15-1 reported as 16

---

Tested on: methicillin-sensitive Staphylococcus aureus (MSSA)
Experiment: MIC, two-fold agar dilution (CLSI), clinical isolates
Assay type: cell-based
Conditions: strain MSSA 15-6
readout.label: MIC (anti-bacterial activity) (µg/mL)
State the answer as a number, implicitly in µg/mL.

Study these solved cases before continuing.
- entry.smiles: "CCCC[C@H](CN(O)C=O)C(=O)N1CC2(CC2)C[C@H]1C(=O)NC1CC1"
  MIC (anti-bacterial activity) / µg/mL: 2
- entry.smiles: "O=CN(O)C[C@@H](CC1CCCC1)C(=O)N1CC2(CC2)C[C@H]1C(=O)Nc1ccno1"
  MIC (anti-bacterial activity) / µg/mL: 1
- entry.smiles: "CCCC[C@H](CN(O)C=O)C(=O)N1CC2(CC2)C[C@H]1C(=O)Nc1cnccn1"
  MIC (anti-bacterial activity) / µg/mL: 0.125
- entry.smiles: "CCCC[C@H](CN(O)C=O)C(=O)N1CC2(CC2)C[C@H]1C(=O)Nc1ccno1"
  MIC (anti-bacterial activity) / µg/mL: 1
- entry.smiles: "Cc1cc(NC(=O)[C@@H]2CC3(CC3)CN2C(=O)[C@H](CC2CCCC2)CN(O)C=O)no1"
  MIC (anti-bacterial activity) / µg/mL: 1

Short answer for CCCC[C@H](CN(O)C=O)C(=O)N1CC2(CC2)C[C@H]1C(=O)Nc1nccs1 : MIC (anti-bacterial activity) was 0.06

---

Test system: Enterococcus faecalis (EFA)
Assay: MIC, two-fold agar dilution (CLSI), clinical isolates
Type: cell-based
Details: clinical isolate EFA 15-3
readout.label: Anti-bacterial activity (MIC), strain EFA 15-3

Sample answers from the record:
- compound: "O=C(C[C@@H](CC1CCCC1)C(=O)N1CC2(CC2)C[C@H]1C(=O)Nc1ccc(F)cn1)NO"
  target.entity: "Enterococcus faecalis (EFA)"
  measured: "32 µg/mL"
- compound: "CCCC[C@H](CC(=O)NO)C(=O)N1CC2(CC2)C[C@H]1C(=O)Nc1cccnn1"
  target.entity: "Enterococcus faecalis (EFA)"
  measured: "> 32 µg/mL"
- compound: "O=CN(O)C[C@@H](CC1CCCC1)C(=O)N1CC2(CC2)C[C@H]1C(=O)Nc1nccs1 (stereo in doubt)"
  target.entity: "Enterococcus faecalis (EFA)"
  measured: "4 µg/mL"
- compound: "CCCC[C@H](CC(=O)NO)C(=O)N1CC2(CC2)C[C@H]1C(=O)Nc1ncco1"
  target.entity: "Enterococcus faecalis (EFA)"
  measured: "> 32 µg/mL"

The compound CCCC[C@H](CC(=O)NO)C(=O)N1CC2(CC2)C[C@H]1C(=O)Nc1ncccc1F , when measured on Enterococcus faecalis (EFA), yielded Anti-bacterial activity (MIC), strain EFA 15-3 of > 32 µg/mL

Tested on Enterococcus faecalis (EFA): Cc1cnc(NC(=O)[C@@H]2CC3(CC3)CN2C(=O)[C@@H](CC(=O)NO)CC2CCCC2)s1 . Observed Anti-bacterial activity (MIC), strain EFA 15-3: 32 µg/mL

Log: Enterococcus faecalis (EFA), compound CCCC[C@H](CC(=O)NO)C(=O)N1CC2(CC2)C[C@H]1C(=O)Nc1nc(C)cs1 , Anti-bacterial activity (MIC), strain EFA 15-3 = 2 µg/mL

Summary line: O=C(C[C@@H](CC1CCCC1)C(=O)N1CC2(CC2)C[C@H]1C(=O)Nc1ccncn1)NO , Enterococcus faecalis (EFA), reported Anti-bacterial activity (MIC), strain EFA 15-3 = > 32 µg/mL

---

Test system: methicillin-resistant Staphylococcus epidermidis (MRSE)
Assay: MIC, two-fold agar dilution (CLSI), clinical isolates
Assay type: cell-based
Settings: strain MRSE 15-1
readout.label: MIC (anti-bacterial activity) (µg/mL)
Hi! Could you send only the number? It should be in µg/mL, unit omitted.

Examples with their reported MIC (anti-bacterial activity) follow.
- entry.smiles: "Cc1cc(NC(=O)[C@@H]2CC3(CC3)CN2C(=O)[C@H](CC2CCCC2)CN(O)C=O)no1"
  measured: 1
- entry.smiles: "CCCC[C@H](CN(O)C=O)C(=O)N1CC2(CC2)C[C@H]1C(=O)Nc1ccncn1"
  measured: 0.06
- entry.smiles: "CCCC[C@H](CN(O)C=O)C(=O)N1CC2(CC2)C[C@H]1C(=O)Nc1nc(C)cs1"
  measured: 0.06
- entry.smiles: "CCCC[C@H](CN(O)C=O)C(=O)N1CC2(CC2)C[C@H]1C(=O)Nc1nncs1"
  measured: 0.25

Input CCCC[C@H](CN(O)C=O)C(=O)N1CC2(CC2)C[C@H]1C(=O)Nc1ccno1 . Output MIC (anti-bacterial activity): 0.25

---

Test system: Enterococcus faecium (EFM)
Assay: MIC, two-fold agar dilution (CLSI), clinical isolates
Format: cell-based
Conditions: clinical isolate EFM 15-1
readout.label: Anti-bacterial activity (MIC), strain EFM 15-1

Anti-bacterial activity (MIC), strain EFM 15-1 value, target or system Enterococcus faecium (EFM), for CCCC[C@H](CC(=O)NO)C(=O)N1CC2(CC2)C[C@H]1C(=O)NC1CC1 : > 32 µg/mL

Measured Anti-bacterial activity (MIC), strain EFM 15-1 for this entry O=CN(O)C[C@@H](CC1CCCC1)C(=O)N1CC2(CC2)C[C@H]1C(=O)Nc1nccs1 (stereo in doubt) on Enterococcus faecium (EFM): 1 µg/mL

Simply: CCCC[C@H](CC(=O)NO)C(=O)N1CC2(CC2)C[C@H]1C(=O)Nc1cccnn1 , Enterococcus faecium (EFM), Anti-bacterial activity (MIC), strain EFM 15-1 = > 32 µg/mL

Summary: CCCC[C@H](CC(=O)NO)C(=O)N1CC2(CC2)C[C@H]1C(=O)Nc1ncccc1F , Enterococcus faecium (EFM), Anti-bacterial activity (MIC), strain EFM 15-1 = > 32 µg/mL

Known value: Enterococcus faecium (EFM) Anti-bacterial activity (MIC), strain EFM 15-1 of the molecule Cc1cnc(NC(=O)[C@@H]2CC3(CC3)CN2C(=O)[C@@H](CC(=O)NO)CC2CCCC2)s1 equals > 32 µg/mL

Anti-bacterial activity (MIC), strain EFM 15-1 of CCCC[C@H](CC(=O)NO)C(=O)N1CC2(CC2)C[C@H]1C(=O)Nc1ncc(C)s1 , assay on Enterococcus faecium (EFM), is > 32 µg/mL
